System: KG-1
method: CellTiterGlo cell viability assay, KG-1
Type: cell-based
conditions used: Homo sapiens; KG-1, 72 h, percentage inhibition at the highest concentration tested; read-out: Top Inhibit
readout name: inhibition at 198 µM
Express your answer as a number followed by its unit.

Example entries and their recorded answers appear below.
CCOP(=O)(N[C@@H](C)C(=O)OCc1ccccc1)OP(=O)(O)OC[C@H]1O[C@@H](n2cnc3c(N)nc(Cl)nc32)[C@H](F)C1O (stereo partly drawn)	92%
C[C@H](NP(=O)(Oc1ccccc1)OP(=O)(O)OC[C@H]1O[C@@H](n2cnc3c(N)nc(Cl)nc32)[C@H](F)C1O)C(=O)OCC(C)(C)C (stereo partly drawn)	92%

# ---- query molecule ----
Param item = Nc1nc(Cl)nc2c1ncn2[C@@H]1O[C@H](COP(=O)(O)OP(=O)(N[C@@H](Cc2ccccc2)C(=O)OCc2ccccc2)Oc2ccccc2)C(O)[C@H]1F (stereo partly drawn) ; retrieve measured inhibition at 198 µM. 92%
